// reported IC50 per item
assayed.system: C-C chemokine receptor type 5 (Homo sapiens)
Sequence (P51681 whole entry): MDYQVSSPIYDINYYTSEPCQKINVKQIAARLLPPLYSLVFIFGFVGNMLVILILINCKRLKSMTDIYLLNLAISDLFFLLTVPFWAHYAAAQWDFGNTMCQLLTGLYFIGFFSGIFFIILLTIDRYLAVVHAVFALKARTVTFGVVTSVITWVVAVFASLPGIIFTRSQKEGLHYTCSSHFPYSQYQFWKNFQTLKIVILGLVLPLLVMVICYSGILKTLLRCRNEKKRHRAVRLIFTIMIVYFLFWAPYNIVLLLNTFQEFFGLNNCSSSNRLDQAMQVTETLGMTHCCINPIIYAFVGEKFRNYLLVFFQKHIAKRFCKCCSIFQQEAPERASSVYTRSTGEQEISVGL
measurement.description: Displacement of [125I]human-MIP1-alpha from human CCR5 receptor expressed in CHO cells by SPA
Write the number in µM without appending the unit.

[
  {
    "compound": "CC1OC(=O)C=C2C3=C(OC(C)(C)CC3)C(=O)C(O)=C21 (stereo not drawn)",
    "observed.property": "IC50",
    "value": 21
  },
  {
    "compound": "CC1OC(=O)c2c3c(c(O)c(O)c21)OC(C)(C)CC3 (stereo not drawn)",
    "observed.property": "IC50",
    "value": 80
  }
]

Shifting focus to the compound that follows.
Q) Consider the compound COC1C(=O)OC(C)c2c(O)c(O)c3c(c21)CCC(C)(C)O3 (stereo not drawn) tested on C-C chemokine receptor type 5 (Homo sapiens); state its IC50.
A) 154
